Quick reference: Fold PTH of the listed items.
Target: T1, delNT PTHR1 (human, UniProt Q03431 27-593)
T1 sequence (looked up): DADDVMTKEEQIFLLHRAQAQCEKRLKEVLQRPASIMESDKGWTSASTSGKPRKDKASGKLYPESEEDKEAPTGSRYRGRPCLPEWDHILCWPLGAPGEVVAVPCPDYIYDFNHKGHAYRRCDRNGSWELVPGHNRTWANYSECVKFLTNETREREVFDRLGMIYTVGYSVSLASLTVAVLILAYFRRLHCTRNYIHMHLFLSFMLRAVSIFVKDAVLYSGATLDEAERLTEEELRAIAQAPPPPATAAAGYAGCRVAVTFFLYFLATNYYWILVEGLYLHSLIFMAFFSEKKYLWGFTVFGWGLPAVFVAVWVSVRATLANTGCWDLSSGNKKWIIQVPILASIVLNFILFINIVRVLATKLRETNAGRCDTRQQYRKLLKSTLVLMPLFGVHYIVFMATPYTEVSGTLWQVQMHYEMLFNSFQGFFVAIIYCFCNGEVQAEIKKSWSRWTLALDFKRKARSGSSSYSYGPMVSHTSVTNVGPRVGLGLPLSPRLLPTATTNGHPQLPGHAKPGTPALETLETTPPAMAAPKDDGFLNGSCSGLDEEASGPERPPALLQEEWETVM
Experiment: cell-based or functional assay
Non-standard residues stand in square brackets, D forms with d. No end group written: not given here. ACPC = 2-aminocyclopentane carboxylic acid

> print(dat)
                                     binder  reported
1  SVS[ACPC]IQLMHNLGKHLNSMERVEWLRKKLQDVHNF-NH2 [ACPC(4) PTH(1-34)]  510 fold

Input SVSEIQLMZNLGKHLNSMERVEWLRKKLQDVHNF (APC (Z) at 9; C-terminal amide) [APC(9) PTH(1-34)] , output reported Fold PTH.
87 fold

Please give measured Fold PTH of the following entry: SV[ACPC]EIQLMHNLGKHLNSMERVEWLRKKLQDVHNF-NH2 [ACPC(3) PTH(1-34)]
130 fold
